Known pIC50 of a selection of compounds
experimental target: Cannabinoid receptor 1 (Homo sapiens)
protocol description: Antagonist activity at human CB1R expressed in CHO-K1 cell membranes assessed as stimulation of [35S]-GTPgammaS binding by liquid scintillation counting method
Type: functional, Cell membrane
test settings: read-out: IC50
In plain terms, pIC50 is the concentration in mol/L turned into minus its base-10 logarithm.

N/C(=N/C(=N/S(=O)(=O)N1CCCCC1)N1CC(c2ccccc2)C(c2ccc(Cl)cc2)=N1)c1ccc(Cl)cc1 (stereo not drawn): 8.22
CCN(CC)S(=O)(=O)/N=C(/N=C(\N)SC)N1CC(c2ccccc2)C(c2ccc(Cl)cc2)=N1 (stereo not drawn): 6.41
C/C(N)=N/C(=N/S(=O)(=O)N1CCCC1)N1CC(c2ccccc2)C(c2ccc(Cl)cc2)=N1 (stereo not drawn): 6.86
C/C(N)=N/C(=N/S(=O)(=O)N1CCOCC1)N1CC(c2ccccc2)C(c2ccc(Cl)cc2)=N1 (stereo not drawn): 7.20

Turning to the following compound.
Query :: Note down pIC50 recorded for CC(C)(C)/C(N)=N/C(=N/S(=O)(=O)N1CCC(C(F)(F)F)CC1)N1CC(c2ccccc2)C(c2ccc(Cl)cc2)=N1 (stereo not drawn)
Result :: 8.70

---

experimental target: Cannabinoid receptor 2 (Homo sapiens, UniProt P34972)
Sequence (P34972 whole entry): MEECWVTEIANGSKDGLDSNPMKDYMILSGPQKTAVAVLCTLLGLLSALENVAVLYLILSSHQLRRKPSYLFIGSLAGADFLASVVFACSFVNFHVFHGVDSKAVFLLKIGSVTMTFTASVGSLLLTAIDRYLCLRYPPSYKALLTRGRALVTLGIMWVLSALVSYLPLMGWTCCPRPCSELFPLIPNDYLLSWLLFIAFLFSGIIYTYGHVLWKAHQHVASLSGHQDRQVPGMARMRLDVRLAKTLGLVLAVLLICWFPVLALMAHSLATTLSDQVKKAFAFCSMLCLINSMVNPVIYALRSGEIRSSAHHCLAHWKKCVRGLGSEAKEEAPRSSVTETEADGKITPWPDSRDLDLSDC
protocol description: Displacement of [3H]- CP55940 from human CB2R expressed in CHO-K1 cells membrane by Cheng-Prusoff equation analysis
Assay type: cell membranes, Cell membrane
test settings: read-out: Ki
Known Ki of a selection of molecules

CS/C(N)=N/C(=N/S(=O)(=O)N1CCCC1)N1CC(c2ccccc2)C(c2ccc(Cl)cc2)=N1 (centres undefined): > 1000 nM
C/C(N)=N\C(=N\S(=O)(=O)N1CCC(F)(F)CC1)N1CC(c2ccccc2)C(c2ccc(Cl)cc2)=N1 (centres undefined): > 100 nM
CCN(CC)S(=O)(=O)/N=C(/N=C(\N)c1ccc(F)cc1)N1CC(c2ccccc2)C(c2ccc(Cl)cc2)=N1 (centres undefined): > 1000 nM

Turning to the following molecule.
Query :: Note down Ki recorded for N/C(=N\C(=N\S(=O)(=O)N1CCCC1)N1CC(c2ccccc2)C(c2ccc(Cl)cc2)=N1)c1ccc(Cl)cc1 (centres undefined)
Result :: > 1000 nM

---

Known IC50 of a selection of compounds
experimental target: Cannabinoid receptor 1 (Homo sapiens)
protocol description: Antagonist activity at human CB1R expressed in CHO-K1 cell membranes assessed as stimulation of [35S]-GTPgammaS binding by liquid scintillation counting method
Assay type: functional, Cell membrane
test settings: read-out: IC50
Give just the numeric value; nM need not be written.

Some compounds with known IC50 results, for comparison:
CC(C)(C)/C(N)=N/C(=N/S(=O)(=O)N1CCOCC1)N1CC(c2ccccc2)C(c2ccc(Cl)cc2)=N1 (stereo not drawn): 34
CCN(CC)S(=O)(=O)/N=C(/N=C(\N)c1ccc(Cl)cc1)N1CC(c2ccccc2)C(c2ccc(Cl)cc2)=N1 (stereo not drawn): 86
C/C(N)=N\C(=N\S(=O)(=O)N1CCCCC1)N1CC(c2ccccc2)C(c2ccc(Cl)cc2)=N1 (stereo not drawn): 57
N/C(=N\C(=N\S(=O)(=O)N1CCOCC1)N1CC(c2ccccc2)C(c2ccc(Cl)cc2)=N1)c1ccc(F)cc1 (stereo not drawn): 19
CS/C(N)=N\C(=N\S(=O)(=O)N1CCCCC1)N1CC(c2ccccc2)C(c2ccc(Cl)cc2)=N1 (stereo not drawn): 166
C/C(N)=N\C(=N\S(=O)(=O)N1CCCCC1)N1C[C@H](c2ccccc2)C(c2ccc(Cl)cc2)=N1: 4
C/C(N)=N\C(=N\S(=O)(=O)N1CCC(F)(F)CC1)N1CC(c2ccccc2)C(c2ccc(Cl)cc2)=N1 (stereo not drawn): 15
CC(C)(C)/C(N)=N/C(=N/S(=O)(=O)N1CCCC1)N1CC(c2ccccc2)C(c2ccc(Cl)cc2)=N1 (stereo not drawn): 61
CCN(CC)S(=O)(=O)/N=C(/N=C(/C)N)N1CC(c2ccccc2)C(c2ccc(Cl)cc2)=N1 (stereo not drawn): 1.9
CS/C(N)=N\C(=N\S(=O)(=O)N1CCC(F)(F)CC1)N1CC(c2ccccc2)C(c2ccc(Cl)cc2)=N1 (stereo not drawn): 127

Query :: Note down IC50 recorded for CC(C)(C)/C(N)=N\C(=N\S(=O)(=O)N1CCCCC1)N1CC(c2ccccc2)C(c2ccc(Cl)cc2)=N1 (stereo not drawn)
Result :: 129

Query :: Note down IC50 recorded for CS/C(N)=N/C(=N/S(=O)(=O)N1CCCC1)N1CC(c2ccccc2)C(c2ccc(Cl)cc2)=N1 (stereo not drawn)
Result :: 462

Query :: Note down IC50 recorded for N/C(=N\C(=N\S(=O)(=O)N1CCC(F)(F)CC1)N1CC(c2ccccc2)C(c2ccc(Cl)cc2)=N1)c1ccc(Cl)cc1 (stereo not drawn)
Result :: 4.2

---

experimental target: Cannabinoid receptor 1 (Homo sapiens, UniProt P21554)
Sequence (P21554 whole entry): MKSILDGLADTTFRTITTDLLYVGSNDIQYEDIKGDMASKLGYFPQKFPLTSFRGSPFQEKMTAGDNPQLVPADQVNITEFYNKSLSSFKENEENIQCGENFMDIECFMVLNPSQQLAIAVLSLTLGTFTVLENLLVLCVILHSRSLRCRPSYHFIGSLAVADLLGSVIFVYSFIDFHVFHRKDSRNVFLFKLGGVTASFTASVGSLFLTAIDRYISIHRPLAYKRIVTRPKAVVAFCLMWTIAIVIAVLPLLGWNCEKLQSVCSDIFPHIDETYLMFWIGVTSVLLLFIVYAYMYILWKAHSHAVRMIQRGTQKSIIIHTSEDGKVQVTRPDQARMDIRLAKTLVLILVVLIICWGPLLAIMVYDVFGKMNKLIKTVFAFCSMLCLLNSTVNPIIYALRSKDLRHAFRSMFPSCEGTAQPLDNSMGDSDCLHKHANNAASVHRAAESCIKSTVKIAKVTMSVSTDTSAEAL
protocol description: Antagonist activity at human CB1R expressed in CHO-K1 cell membranes assessed as stimulation of [35S]-GTPgammaS binding by liquid scintillation counting method
Type: functional, Cell membrane
test settings: read-out: IC50
metric name: IC50 (nM)
Give just the numeric value; nM need not be written.

Some molecules with known IC50 results, for comparison:
N/C(=N\C(=N\S(=O)(=O)N1CCC(C(F)(F)F)CC1)N1CC(c2ccccc2)C(c2ccc(Cl)cc2)=N1)c1ccc(Cl)cc1 (stereo not given): 5.4
CCN(CC)S(=O)(=O)/N=C(/N=C(/C)N)N1C[C@H](c2ccccc2)C(c2ccc(Cl)cc2)=N1: 1.2
C/C(N)=N/C(=N/S(=O)(=O)N1CCC(C(F)(F)F)CC1)N1CC(c2ccccc2)C(c2ccc(Cl)cc2)=N1 (stereo not given): 273

Query :: Note down IC50 recorded for CC(C)(C)/C(N)=N/C(=N/S(=O)(=O)N1CCC(F)(F)CC1)N1CC(c2ccccc2)C(c2ccc(Cl)cc2)=N1 (stereo not given)
Result :: 10

Query :: Note down IC50 recorded for CS/C(N)=N/C(=N/S(=O)(=O)N1CCOCC1)N1CC(c2ccccc2)C(c2ccc(Cl)cc2)=N1 (stereo not given)
Result :: 91

Query :: Note down IC50 recorded for N/C(=N\C(=N\S(=O)(=O)N1CCOCC1)N1CC(c2ccccc2)C(c2ccc(Cl)cc2)=N1)c1ccc(Cl)cc1 (stereo not given)
Result :: 25

Query :: Note down IC50 recorded for N/C(=N/C(=N/S(=O)(=O)N1CCCCC1)N1CC(c2ccccc2)C(c2ccc(Cl)cc2)=N1)c1ccc(F)cc1 (stereo not given)
Result :: 4

Query :: Note down IC50 recorded for CCN(CC)S(=O)(=O)/N=C(/N=C(\N)c1ccc(F)cc1)N1CC(c2ccccc2)C(c2ccc(Cl)cc2)=N1 (stereo not given)
Result :: 108

Query :: Note down IC50 recorded for N/C(=N\C(=N\S(=O)(=O)N1CCCC1)N1CC(c2ccccc2)C(c2ccc(Cl)cc2)=N1)c1ccc(Cl)cc1 (stereo not given)
Result :: 427

Query :: Note down IC50 recorded for CS/C(N)=N/C(=N/S(=O)(=O)N1CCC(C(F)(F)F)CC1)N1C[C@H](c2ccccc2)C(c2ccc(Cl)cc2)=N1
Result :: 2

Query :: Note down IC50 recorded for N/C(=N\C(=N\S(=O)(=O)N1CCC(F)(F)CC1)N1CC(c2ccccc2)C(c2ccc(Cl)cc2)=N1)c1ccc(F)cc1 (stereo not given)
Result :: 4.4

Query :: Note down IC50 recorded for N/C(=N\C(=N\S(=O)(=O)N1CCCC1)N1CC(c2ccccc2)C(c2ccc(Cl)cc2)=N1)c1ccc(F)cc1 (stereo not given)
Result :: 115

Query :: Note down IC50 recorded for CCN(CC)S(=O)(=O)/N=C(/N=C(\N)C(C)(C)C)N1CC(c2ccccc2)C(c2ccc(Cl)cc2)=N1 (stereo not given)
Result :: 375

Query :: Note down IC50 recorded for CS/C(N)=N/C(=N/S(=O)(=O)N1CCC(C(F)(F)F)CC1)N1CC(c2ccccc2)C(c2ccc(Cl)cc2)=N1 (stereo not given)
Result :: 3.6

Query :: Note down IC50 recorded for N/C(=N\C(=N\S(=O)(=O)N1CCC(C(F)(F)F)CC1)N1CC(c2ccccc2)C(c2ccc(Cl)cc2)=N1)c1ccc(F)cc1 (stereo not given)
Result :: 2.77
